- System: soluble ADP-ribosyl cyclase from Jurkat T lymphocytes
- MEASUREMENT_PROTOCOL: Inhibition of partially purified soluble ADP-ribosyl cyclase, cyclase activity
- Type: biochemical, human
- SETUP_CONDITIONS: inhibitor 100 μM; soluble fraction; 100 μM 1,N6-etheno-NAD substrate
Item-by-item account of Enzyme Activity (% of control), Cyclase activity

NC(=O)c1ccc[n+]([C@@H]2O[C@H](COP(=O)([O-])O)[C@@H](O)[C@H]2O)c1 [β-NMN, β-nicotinamide mononucleotide, reference compound]    65.4 % of control
NC(=O)c1ccc[n+]([C@@H]2O[C@H](COP(=O)([O-])OP(=O)(O)OC[C@H]3O[C@@H](n4ccc5c(=O)[nH]cnc54)[C@H](O)[C@@H]3O)[C@@H](O)[C@H]2O)c1    69.3 % of control
NC(=O)c1ccc[n+](C2OC(COP(=O)(O)OP(=O)(O)OCC3OC(n4cnc5c(=O)[nH]cnc54)C(O)C3O)C(O)C2O)c1 (centres unmarked) [NHD, nicotinamide hypoxanthine dinucleotide]    10.6 % of control

Tell me Enzyme Activity (% of control), Cyclase activity reported for NC(=O)c1ccc[n+](C2OC(COP(=O)([O-])OP(=O)(O)OCC3OC(n4c(Br)nc5c(=O)[nH]cnc54)C(O)C3O)C(O)C2O)c1 (centres unmarked)
13.0 % of control

Please list Enzyme Activity (% of control), Cyclase activity recorded for the compound NC(=O)c1cccnc1 [Nicotinamide, nicotinamide, reference compound]
38.2 % of control

----------
- System: soluble ADP-ribosyl cyclase from Jurkat T lymphocytes
- MEASUREMENT_PROTOCOL: Inhibition of partially purified soluble ADP-ribosyl cyclase, cyclase activity
- Type: biochemical, human
- SETUP_CONDITIONS: inhibitor 10 μM; soluble fraction; 100 μM 1,N6-etheno-NAD substrate
READOUT: Enzyme Activity (% of control), Cyclase activity

Example results:
NC(=O)c1ccc[n+]([C@@H]2O[C@H](COP(=O)([O-])OP(=O)(O)OC[C@H]3O[C@@H](n4ccc5c(=O)[nH]cnc54)[C@H](O)[C@@H]3O)[C@@H](O)[C@H]2O)c1    94.0 % of control
NC(=O)c1ccc[n+](C2OC(COP(=O)([O-])OP(=O)(O)OCC3OC(n4c(Br)nc5c(=O)[nH]cnc54)C(O)C3O)C(O)C2O)c1 (centres unmarked)    57.7 % of control
NC(=O)c1cccnc1 [Nicotinamide, nicotinamide, reference compound]    99.2 % of control
NC(=O)c1ccc[n+](C2OC(COP(=O)(O)OP(=O)(O)OCC3OC(n4cnc5c(=O)[nH]cnc54)C(O)C3O)C(O)C2O)c1 (centres unmarked) [NHD, nicotinamide hypoxanthine dinucleotide]    46.0 % of control

Now, please, on to the next compound.
Please report Enzyme Activity (% of control), Cyclase activity with soluble ADP-ribosyl cyclase from Jurkat T lymphocytes for item NC(=O)c1ccc[n+]([C@@H]2O[C@H](COP(=O)([O-])O)[C@@H](O)[C@H]2O)c1 [β-NMN, β-nicotinamide mononucleotide, reference compound] .
80.5 % of control

----------
- Test system: NAD glycohydrolase activity of P10 membranes from Jurkat T lymphocytes
- MEASUREMENT_PROTOCOL: Inhibition of NAD glycohydrolase (NADase) activity in the P10 fraction
- Format: biochemical, human
- SETUP_CONDITIONS: inhibitor 100 μM; P10 fraction
Some compounds, each annotated with its measured Enzyme Activity (% of control), NAD glycohydrolase activity.

NC(=O)c1ccc[n+](C2OC(COP(=O)([O-])OP(=O)(O)OCC3OC(n4c(Br)nc5c(=O)[nH]cnc54)C(O)C3O)C(O)C2O)c1 (centres unmarked)    15.6 % of control

As a next step, examine the compound that follows.
Read the entry NC(=O)c1ccc[n+](C2OC(COP(=O)(O)OP(=O)(O)OCC3OC(n4cnc5c(=O)[nH]cnc54)C(O)C3O)C(O)C2O)c1 (centres unmarked) [NHD, nicotinamide hypoxanthine dinucleotide] and write its reported Enzyme Activity (% of control), NAD glycohydrolase activity.
0 % of control
